pKi: −log10 of the molar value.
Across several publications, the following pKi results were reported for UniProt P00915.
endpointName: pKi

// COc1cc(C(=O)O)cc(OC)c1O : pKi value = 3.04

For record Cc1cccc(N2C(=O)[C@H](C)S[C@H]2c2ccc(C)s2)n1 the listed pKi is 5.25

For Cc1ccc(-c2c(C#N)c(N)nc3c2CCCC3)o1 the compound record lists pKi as 4.05

What the record says about CCOC1Oc2c(Br)cc(Br)cc2C(=O)/C1=C\Nc1ccc(S(N)(=O)=O)cc1 (configuration not stated) : pKi is 4.15

pKi reported for this compound COc1cc(C=O)ccc1OS(C)(=O)=O : 4.10

a = Cc1cc(=O)oc2cc3ccccc3cc12
b = O[C@@H]1C2C[C@H](O)C1c1ccccc12 (some centres not stated)
Which record would sort first by descending pKi, a or b ? Give the label of your selection.
a

###

Please find below Ki data on Carbonic anhydrase 1 (Homo sapiens, UniProt P00915) compiled from the literature.
endpointName: Ki (µM)

A = Cc1ccc(-c2c(C#N)c(N)nc3c2CCCCC3)o1
B = Cc1ccc(-c2c(C#N)c(N)nc3c2CCC3)o1
C = Cc1ccc(S(=O)(=O)Nc2ccccc2)cc1
D = COc1c(Br)cc(C2CCCC2Cc2c(Br)c(Br)c(OC)c(OC)c2Br)c(Br)c1OC (stereo not drawn)
# descending Ki order for the listed compounds Put the labels in the requested order and list them out.
C, A, B, D

a = COc1cc2c(cc1OC)C(NS(C)(=O)=O)CC2 (stereo not drawn)
b = O=C(c1ccc(O)c(O)c1)c1cc(Br)c(O)c(O)c1O
Of a and b , which shows the smaller Ki value? To answer, give the label that identifies your chosen option.
b
(b: 6.77 µM, a: 52 µM)

###

Compiled pKi measurements on Carbonic anhydrase 1 (Homo sapiens) taken from the literature.
pKi: −log10 of the molar value.
endpointName: pKi

I = Cc1ccc(S(=O)(=O)Nc2ccccc2[N+](=O)[O-])cc1
II = Cc1ccc(S(=O)(=O)Nc2ccc(C#N)cc2)cc1
Please choose the item with the lower pKi value from this pair: I and II Your answer should be the label of the entry you select.
I

A = CC1(C)CCC2=C(C1=O)C(c1ccc(O)cc1)C1=C(CCC(C)(C)C1=O)N2c1ccc(S(N)(=O)=O)cc1
B = NS(=O)(=O)Nc1ccc(NC(=O)Nc2ccc(Cl)cc2)cc1
Higher pKi: A or B ? Give the label under which the chosen entry appears.
A

###

Below: molecules with Ki recorded for Carbonic anhydrase 1 (Homo sapiens, UniProt P00915) in separate published works.
endpointName: Ki (nM)

The following molecules have reported results that may help.
For COc1ccc(C(=O)C2=C(c3cc(OC)c(OC)cc3[N+](=O)[O-])CCC2)cc1OC the molecule record lists Ki as 573

In plain terms, CC(=O)/C(=N\Nc1cccc(-n2nc(C(=O)Nc3ccc(S(N)(=O)=O)cc3)c(C(=O)c3ccccc3)c2-c2ccccc2)c1)C(=O)c1ccccc1 has a documented Ki of 521

a = Cc1cc(Cl)ccc1NC(=O)Nc1ccc(NS(N)(=O)=O)cc1
b = CC1(C)CC(=O)C2=C(C1)N(c1ccc(S(N)(=O)=O)cc1)C1=C(C(=O)CC(C)(C)C1)C2c1ccccn1
Field: lower Ki | Options: a / b Label of pick, please.
b

###

Note to self: these molecules have Ki reported for Carbonic anhydrase 1 (Homo sapiens) in various publications.
endpointName: Ki (nM)

For record NS(=O)(=O)c1nnc(NC(=O)c2nn(-c3ccc(/N=N/c4c(O)ccc5ccccc45)cc3)c(-c3ccccc3)c2C(=O)c2ccccc2)s1 the listed Ki is 5830

// field: Ki; key: CC1(C)CC(=O)C2=C(C1)N(c1ccc(S(N)(=O)=O)cc1)C1=C(C(=O)CC(C)(C)C1)C2c1ccc(C#N)cc1 ; value = 520

1 = NS(=O)(=O)c1nnc(NC(=O)c2nn(-c3cccc(NN=C4C(=O)CCCC4=O)c3)c(-c3ccccc3)c2C(=O)Nc2nnc(S(N)(=O)=O)s2)s1
2 = CC(=O)/C(=N/Nc1cccc(-n2nc(C(=O)Nc3nnc(S(N)(=O)=O)s3)c(C(=O)Nc3nnc(S(N)(=O)=O)s3)c2-c2ccccc2)c1)C(=O)c1ccccc1
3 = COc1cc(C(=O)C2=C(c3cc(OC)c(OC)cc3[N+](=O)[O-])CCC2)c([N+](=O)[O-])cc1OC
4 = CCOC(=O)/C(=N/Nc1cccc(-n2nc(C(=O)Nc3ccc(S(N)(=O)=O)cc3)c(C(=O)c3ccccc3)c2-c2ccccc2)c1)C(=O)c1ccccc1
5 = Cc1cccc(N2C(=O)CSC2c2ccc(C)s2)n1 (configuration not stated)
Exam item: list the entries in increasing order of Ki. Sort the labels as requested; that list is your answer.
2, 1, 3, 4, 5

###

pKi: −log10 of the molar value.
From various publications: pKi for Carbonic anhydrase 1 (Homo sapiens).
endpointName: pKi

Entry CS(=O)(=O)Oc1cccc(OS(C)(=O)=O)c1OS(C)(=O)=O ; pKi = 3.32

a = Nc1ccc(S(=O)(=O)Nc2ccccn2)cc1
b = Oc1cc(Br)c(Cc2cc(Br)c(O)c(O)c2O)cc1O
Of a and b , whose reported pKi is numerically smaller? Kindly give the label for the entry you pick.
a

P = Cc1ccc(-c2c(C#N)c(N)nc3c2CCCC3)s1
Q = CC(=O)/C(=N\Nc1ccc(-n2nc(C(=O)Nc3nnc(S(N)(=O)=O)s3)c(C(=O)c3ccccc3)c2-c2ccccc2)cc1)C(=O)c1ccccc1
Exercise: compare P and Q ; which one has the greater pKi? Refer to your chosen entry by its label in the reply.
Q

###

Here we gather Ki data for Carbonic anhydrase 1 (Homo sapiens) reported by several publications.
endpointName: Ki (nM)

Example molecules with recorded Ki:
Entry O=S(=O)(O)O[C@H]1CC2c3ccccc3C1[C@@H]2O (stereo partly specified) ; Ki = 32700

Ki reported for this molecule CCOC(=O)C(=NNc1ccc(-n2nc(C(=O)Nc3nnc(S(N)(=O)=O)s3)c(C(=O)c3ccccc3)c2-c2ccccc2)cc1)C(=O)OCC : 300

So, NS(=O)(=O)Nc1ccc(NC(=O)NCc2ccccc2)cc1 ? Its Ki was 2710

So for Cc1ccc(S(=O)(=O)Nc2ccc3ccccc3c2)cc1 , the logged Ki turned out to be 181

A = NS(=O)(=O)Nc1ccc(NC(=O)NC2CCCCC2)cc1
B = COc1ccc(C2C3=C(CCCC3=O)N(c3ccc(S(N)(=O)=O)cc3)C3=C2C(=O)CCC3)c(OC)c1
I'd appreciate it if you could identify which of A and B has the greater Ki. Output the label that corresponds to your choice.
A
(A: 4300 nM, B: 15 nM)

###

pKi: −log10 of the molar value.
Collected literature values of pKi measured for Carbonic anhydrase 1 (Homo sapiens).
endpointName: pKi

pKi for Oc1ccc(Cc2ccc(O)c(O)c2O)cc1O is 5.08

Note to self: pKi recorded for COc1ccc(C(=O)C2CCC=C2c2ccc(OC)c(OC)c2)cc1OC (configuration not stated) was 6.13

pKi reported for this compound Cc1ccc(-c2c(C#N)c(N)nc3c2CCSC3)o1 : 4.30

So, COc1ccc(C2CCCC2C(OC(=O)c2ccc([N+](=O)[O-])cc2)c2ccc(OC)c(OC)c2)cc1OC (configuration not stated) ? Its pKi was 6.21

The compound listed as Nc1cccc(-n2nc(C(=O)Nc3ccc(S(N)(=O)=O)cc3)c(C(=O)c3ccccc3)c2-c2ccccc2)c1 has a reported pKi of 6.97

// NS(=O)(=O)c1nnc(NC(=O)c2nn(-c3cccc(NN=C(C(=O)c4ccccc4)C(=O)c4ccccc4)c3)c(-c3ccccc3)c2C(=O)Nc2nnc(S(N)(=O)=O)s2)s1 : pKi value = 5.40

P = NS(=O)(=O)Nc1ccc(NC(=O)Nc2cccc([N+](=O)[O-])c2)cc1
Q = O=S(=O)(O)O[C@@H]1CC/C=C\CC[C@H]1O
Given the two records P and Q , choose the one whose pKi value is lower. Identify your selection by its label.
Q

I = COc1ccc(C(NS(C)(=O)=O)c2ccc(OC)c(OC)c2)cc1OC
II = COc1cc2c(cc1OC)CC(NS(C)(=O)=O)C2
Given the listed items, does I or II have the lesser reported pKi? Let me know the label of the one you choose.
II

I = CO/N=C(\C(=O)N[C@@H]1C(=O)N2C(C(=O)O)=C(CSc3nc(=O)c(=O)[nH]n3C)CS[C@H]12)c1csc(N)n1
II = CCOC(=O)C(=NNc1cccc(-n2nc(C(=O)Nc3nnc(S(N)(=O)=O)s3)c(C(=O)Nc3nnc(S(N)(=O)=O)s3)c2-c2ccccc2)c1)C(=O)OCC
III = NS(=O)(=O)c1ccc(NC(=O)c2nn(-c3cccc([N+](=O)[O-])c3)c(-c3ccccc3)c2C(=O)c2ccccc2)cc1
IV = CC(=O)C(=NNc1cccc(-n2nc(C(=O)Nc3nnc(S(N)(=O)=O)s3)c(C(=O)Nc3nnc(S(N)(=O)=O)s3)c2-c2ccccc2)c1)C(C)=O
V = Cc1ccc(S(=O)(=O)Nc2ccccc2C)cc1
# desc sort on pKi across 5 compounds # list labels per requested ordering
III, II, IV, I, V
(III: 6.67, II: 6.34, IV: 6.12, I: 4.55, V: 3.83)

I = CCOC(=O)/C(=N\Nc1cccc(-n2nc(C(=O)Nc3nnc(S(N)(=O)=O)s3)c(C(=O)Nc3nnc(S(N)(=O)=O)s3)c2-c2ccccc2)c1)C(=O)c1ccccc1
II = Cc1ccc(-c2c(C#N)c(N)nc3c2CCCCC3)s1
Quick check, higher pKi between I and II ? Provide the label of your selected option as the answer.
I
(I: 6.31, II: 4.51)
